# Test system: ATP;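 further: ATP exposure 15 min at 22 °C before imaging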
# assay-overview: switch fluorescence ratio, 500 uM ATP over buffer (Cy3 cluster intensity, sum of 5 cycles each) (fold (ratio)); higher = stronger signal-on switching upon ATP binding; sequences stand for … in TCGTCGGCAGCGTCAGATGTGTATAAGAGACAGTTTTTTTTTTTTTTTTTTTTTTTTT…TC
# recorded-conditions: aptamer strand: ATP DNA aptamer (quencher-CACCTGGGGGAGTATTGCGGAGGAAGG + anchor), 100 nM annealed; ATP concentration: 500 uM
quantity-kind: switch fluorescence ratio

Before answering, review these 2 worked examples.
> print(dat)
   entry.sequence              quantity.kind  endpoint.result
1      GGGTTAGATG  switch fluorescence ratio            0.989
2      TTTTTAACGG  switch fluorescence ratio             1.01

Reading of switch fluorescence ratio for ACAGTGTGTC with ATP: 0.994

Kindly note: ATP, TAGACCATGT , switch fluorescence ratio value reported: 1.02

Short answer on ATP for AGTATGAGTT , switch fluorescence ratio: 0.974

Form field switch fluorescence ratio for item AATCTTTATT on ATP: 1.01

Form field switch fluorescence ratio for item AGTGTTACTG on ATP: 0.975

The recorded switch fluorescence ratio with ATP for GTTTGGCGT was 1.03

Fill in: ATP switch fluorescence ratio for GCTAAATTCC = 1.11

Observed switch fluorescence ratio on ATP, entry AACAAGGGCG , equals 1.03

Entry GTTGCTATTT ; assay system ATP; switch fluorescence ratio recorded at 1

Entry GTTTGTAGAG : switch fluorescence ratio on ATP = 0.993

Observed switch fluorescence ratio, ATP, TTATGCGGGG : 0.995

----------
# Test system: ATP;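 further: ATP exposure 15 min at 22 °C before imaging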
# assay-overview: switch fluorescence ratio, 500 uM ATP over buffer (Cy3 cluster intensity, sum of 5 cycles each) (fold (ratio)); higher = stronger signal-on switching upon ATP binding; sequences stand for … in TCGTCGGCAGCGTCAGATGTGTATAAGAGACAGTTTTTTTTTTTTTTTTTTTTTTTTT…TC
# recorded-conditions: aptamer strand: ATP DNA aptamer (quencher-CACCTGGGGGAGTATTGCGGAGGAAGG + anchor), 100 nM annealed; ATP concentration: 500 uM
quantity-kind: switch fluorescence ratio

> print(dat)
   entry.sequence  endpoint.result
1      GGAATGTTTG            0.977
2      TCACAGGGGG             1.14
3      ACACATCATA             1.07

switch fluorescence ratio in this record for TTTATACCGT : 1.03

In plain terms, TTTCGGTATT has a documented switch fluorescence ratio of 1.02

The sequence listed as GTAGTATTAG shows switch fluorescence ratio equal to 1.03

Form field switch fluorescence ratio, entry GATTATTTGA : 0.992

Entry CATTAGAGAC — recorded switch fluorescence ratio = 1.03

Notebook: GGCGTTTGCT , switch fluorescence ratio read as 0.983

In plain terms, GACAGAGGTG has a documented switch fluorescence ratio of 1.03

Item: GTGCTTAGGA | switch fluorescence ratio: 0.957

Sample TCTATGCATG ; switch fluorescence ratio observed: 1.04

# switch fluorescence ratio (sequence: GTGGTGGGTT ) is 0.975

----------
# Tested on: ATP;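 further: ATP exposure 15 min at 22 °C before imaging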
# assay-overview: switch fluorescence ratio, 500 uM ATP over buffer (Cy3 cluster intensity, sum of 5 cycles each) (fold (ratio)); higher = stronger signal-on switching upon ATP binding; sequences stand for … in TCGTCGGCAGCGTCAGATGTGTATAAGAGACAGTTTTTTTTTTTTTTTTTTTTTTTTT…TC
# recorded-conditions: aptamer strand: ATP DNA aptamer (quencher-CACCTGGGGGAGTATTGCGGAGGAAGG + anchor), 100 nM annealed; ATP concentration: 500 uM
Reported values of switch fluorescence ratio for individual entries
When you answer, write just the number.

For orientation, consider the following solved cases.
> print(dat)
   entry.sequence  endpoint.result
1      GGAATGAAGT             1.07
2      TTGTTCTTTT             1.07
3      TGTCACAAGC             1.02
4      TTTTGTGGGA             1.01
5      TCACTTTGCG            0.984

// switching to the query sequence
Data point: ATATGCCCTA ; switch fluorescence ratio = 0.967

src = the supplement of paper PMC10126150
